The reader will find reported C4: Percentage of the intersection in set B values listed item by item below.
# System: Balb/c mice
# assay.name: Polypeptide chip-based vaccine immunogenicity scoring system
# Assay type: in vivo
# condition.details: Embodiment III; polypeptide-KLH; value of the whole mix
# Method: Data distribution and characteristics thereof are analyzed based on a) and b), a polypeptide chip-based vaccine immunogenicity scoring system (referring to Table 7) is designed. 10 combinations are evaluated by the polypeptide chip-based vaccine immunogenicity scoring system. An evaluation method is consistent with that in Embodiment II. […] This embodiment is consistent with Embodiment II. Each combination is evaluated by the polypeptide chip-based vaccine immunogenicity scoring system. […]

// solved cases for C4: Percentage of the intersection in set B follow
GRLQSLQTY (SARS-CoV-2) [SEQ ID NO:5]; 0.232
DYNYKLPDD (SARS-CoV-2) [SEQ ID NO:11]; 1.493
LPFNDGVYF (SARS-CoV-2) [SEQ ID NO:14]; 0.232
KKPASRELKVTF [SEQ ID NO:24]; 0.189
YYKKDNSYF (SARS-CoV-2) [SEQ ID NO:25]; 1.759

Q) Tell me the measured C4: Percentage of the intersection in set B of DNQDLNGNWY (SARS-CoV-2) [SEQ ID NO:31] , please.
A) 0.275

Q) Tell me the measured C4: Percentage of the intersection in set B of ALDPLSETKCT (SARS-CoV-2) [SEQ ID NO:4] , please.
A) 1.053

Q) Tell me the measured C4: Percentage of the intersection in set B of ALNTPKDH (SARS-CoV-2) [SEQ ID NO:19] , please.
A) 1.493

Q) Tell me the measured C4: Percentage of the intersection in set B of FHPLADNKF (SARS-CoV-2) [SEQ ID NO:17] , please.
A) 0.232

Q) Tell me the measured C4: Percentage of the intersection in set B of MADSNGTIT (SARS-CoV-2) [SEQ ID NO:16] , please.
A) 0.275

Q) Tell me the measured C4: Percentage of the intersection in set B of KLDNYYKKDNSY (SARS-CoV-2) [SEQ ID NO:32] , please.
A) 1.053

Q) Tell me the measured C4: Percentage of the intersection in set B of YEGNSPFH [SEQ ID NO:18] , please.
A) 0.257

---

# Tested on: Balb/c mice
# assay.name: Polypeptide chip-based vaccine immunogenicity scoring system
# Assay type: in vivo
# condition.details: adjuvant AddaVax; 7 peptides co-immunized in mice
# Protocol: Data distribution and characteristics thereof are analyzed based on a) and b), a polypeptide chip-based vaccine immunogenicity scoring system (referring to Table 7) is designed. 10 combinations are evaluated by the polypeptide chip-based vaccine immunogenicity scoring system. An evaluation method is consistent with that in Embodiment II. […] This embodiment is consistent with Embodiment II. Each combination is evaluated by the polypeptide chip-based vaccine immunogenicity scoring system. […]
The reader will find reported 1) 95 percentile grouping number A1 values listed item by item below.
Respond with the number and no other words.

SVYAWNRKR (SARS-CoV-2) [SEQ ID NO:3]; 0.05
VYDPLQPEL (SARS-CoV-2) [SEQ ID NO:34]; 0.05
LQDLKWARFPKS [SEQ ID NO:29]; 0.055
YGANKDGI (SARS-CoV-2) [SEQ ID NO:21]; 0.055
MEVTPSGTWLTY (SARS-CoV-2) [SEQ ID NO:22]; 0.05
SNLKPFER (SARS-CoV-2) [SEQ ID NO:36]; 0.04

Q) Recorded 1) 95 percentile grouping number A1 for KLDDKDPNFK (SARS-CoV-2) [SEQ ID NO:20] with Balb/c mice, please?
A) 0
